meta.source: patent US20220064127A1

Test system: ADP-Induced Platelet Aggregation
Experiment: Inhibition of ADP-induced platelet aggregation in rabbit platelet-rich plasma (microplate method)
Format: cell-based
Conditions: Oryctolagus cuniculus, Platelet; rabbit PRP, inducer ADP, absorbance 655 nm; read-out: IC50 (Mean ± SE), ADP-induced platelet aggregation
Procedure: Example 62 Investigation on Inhibition of ADP-Induced Platelet Aggregation in Rabbit […] Several wells of a microplate were selected as test wells, which were added with 135 μL of PRP and then respectively added with 15 μL of the 10× stock solutions. […] The plate was shaken, incubated at 37° C. for 5 min, and then measured for A0 at 655 nm. […] The platelet aggregation rate (AR) and platelet aggregation inhibition rate (AIR) were calculated according to the following formulas: […]
measured_metric: IC50 (µM)

1 = CCOC(=O)c1c(C)nc(-c2ccc(OCC(C)C)c(C#N)c2)n1OC(C)=O
2 = CCOC(=O)c1c(C)nc(-c2ccc(C#N)cc2)n1OC
3 = CCOC(=O)c1c(C)nc(-c2cccc(C#N)c2)n1OCc1ccccc1C#N [LY-26w]
[in] Rank the items above by IC50, largest value first. Provide the ranking by listing each label in its place in the requested order.
[out] 2, 3, 1

a = CCOC(=O)c1c(C)nc(-c2cccc(C#N)c2)n1OCC [LY-26b]
b = CCOC(=O)c1c(C)nc(-c2cccc(C#N)c2)n1OCc1ccc(OC)cc1 [LY-26t]
[in] Rank a against b by their IC50 values and give the higher one. Write down the label attached to your selection.
[out] a
